targetOrSystem: human thrombin (Homo sapiens, UniProt P00734)
Construct: biotin (chemical label)
assayOverview: mRNA display selection against thrombin, selected sequences ranked by next-generation-sequencing frequency
Assay type: binding
protocolConditions: Round 3 of selection, ten washes; top binders ranked by frequency
Experimental: 1 ml of the fusions from the previous step were added to 50 ul of M270 SA beads blocked with TBSTE+2% BSA at room temperature, and were incubated at room temperature for 30 min, and the supernatant was removed for binding with biotinylated thrombin. 8) Pre-Selected Fusions were Bound to 3 ul Biotinylated Human Thrombin at 1 U/ul at 4° C. for 1 h with Rotation 25 ul of M270 SA bead suspension was washed and blocked with TBSTE+2% BSA. […]
measuredMetric: counts

See these solved cases before continuing.
{"columns": ["sequenceContent", "counts"],
 "data": [
  ["SIEFGLTFSF (MGCTSVHQETKKYQSSIEFGLTFSFSYTYNYEHVDVWGCGSADYKDDDDKKK)", 195],
  ["QFHLEFAFTL (MGCTSVHQETKKYQSQFHLEFAFTLSYTYNYEHVDVWGCGSADYKDDDDKKK)", 164],
  ["QMSFRFEVRV (MGCTSVHQETKKYQSQMSFRFEVRVSYTYNYEHVDVWGCGSADYKDDDDKKK)", 211]
]}

A: VTSTYMFMYA
B: RSHGQFSFTF (MGCTSVHQETKKYQSRSHGQFSFTFSYTYNYEHVDVWGCGSADYKDDDDKKK)
Input line: Form field 'greater counts' accepts A or B ; which applies? Please reply using the label of the selected record.
Output line: B
(B: 258, A: 175)
